Tested System: Interleukin-8 receptors, CXCR1/CXCR2 (Homo sapiens) (UniProt P25025+P25024)
Experiment Summary: Inhibition of CXCR1/2 in human polymorphonucleate cells assessed as inhibition of CXCL8-induced chemotaxis at 10^-8 M incubated for 15 mins prior to CXCL8-induction measured after 45 mins
inhibition for assorted compounds

Solved entries:
# Smiles, inhibition
measured = [
    ("C[C@@H](C(=O)Nc1nncs1)c1ccc(OS(=O)(=O)C(F)(F)F)cc1", "54%"),
    ("C[C@@H](C(=O)Nc1ncco1)c1ccc(OS(=O)(=O)C(F)(F)F)cc1", "47%"),
    ("C[C@@H](C(=O)NO)c1ccc(OS(=O)(=O)C(F)(F)F)cc1", "50%"),
    ("C[C@@H](C(=O)Nc1nc(C(F)(F)F)cs1)c1ccc(OS(=O)(=O)C(F)(F)F)cc1", "64%"),
    ("CC(C)Cc1ccc([C@@H](C)C(=O)NS(C)(=O)=O)cc1", "68%"),
]

Now look at this one.
Q) Quick one: inhibition of "CC(C)ONC(=O)[C@H](C)c1ccc(OS(=O)(=O)C(F)(F)F)cc1" ?
A) 49%
